- Tested on: 845751-090-R-J2-PDC tumor spheroid viability;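 also: spheroids exposed to compounds for 7 days before readout; CTG3D luminescence normalised so that 100% = DMSO vehicle control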
- protocolDescription: Anticancer human tumor 845751-090-R-J2-PDC patient-derived head and neck squamous carcinoma cell line growth inhibition [IpAb]
- testContext: second compound 0.316 µM; first compound 0.316 µM; active compounds read low; spheroids with HUVEC and MSC
- Description: Combinatorial screen of targeted agents with ipatasertib and abemaciclib in multi-cell type tumor spheroids […] Compounds. […] If the clinical Cmax for an agent had not been determined, the highest concentration tested was 10 microM. NCI60 Cell Culture. […] The optimal seeding densities for each of the cell lines at each time point assessed were determined prior to performing the concentration response studies. […]
Reported viability, T/C values follow for various compounds
experimentalEndpoint: viability, T/C (%)

- compound: "C=CC(=O)N1CCN(c2nc(=O)n(-c3c(C)ccnc3C(C)C)c3nc(-c4c(O)cccc4F)c(F)cc23)C(C)C1 (stereo not given) + CCN1CCN(Cc2ccc(Nc3ncc(F)c(-c4cc(F)c5nc(C)n(C(C)C)c5c4)n3)nc2)CC1"
  measurementUnits: "%"
  readoutValue: 72.5
- compound: "Cc1nc(NC(=O)N2CCCC2C(N)=O)sc1-c1ccnc(C(C)(C)C(F)(F)F)c1 (stereo not given) + CC(C)NCC(C(=O)N1CCN(c2ncnc3c2C(C)CC3O)CC1)c1ccc(Cl)cc1"
  measurementUnits: "%"
  readoutValue: 20.9
- compound: "Cn1ncc(Cl)c1-c1cc(C(=O)NC(CN)Cc2cccc(F)c2)sc1Cl (stereo not given) + CCN1CCN(Cc2ccc(Nc3ncc(F)c(-c4cc(F)c5nc(C)n(C(C)C)c5c4)n3)nc2)CC1"
  measurementUnits: "%"
  readoutValue: 26.7
- compound: "CCCS(=O)(=O)Nc1ccc(F)c(C(=O)c2c[nH]c3ncc(-c4ccc(Cl)cc4)cc23)c1F + CC(C)NCC(C(=O)N1CCN(c2ncnc3c2C(C)CC3O)CC1)c1ccc(Cl)cc1"
  measurementUnits: "%"
  readoutValue: 46.1
- compound: "Cn1nccc1Nc1nccc(-c2ccn(C(CO)c3ccc(Cl)c(F)c3)c(=O)c2)n1 (stereo not given) + CC(C)NCC(C(=O)N1CCN(c2ncnc3c2C(C)CC3O)CC1)c1ccc(Cl)cc1"
  measurementUnits: "%"
  readoutValue: 24.3
- compound: "CC1(C)CCC(CN2CCN(c3ccc(C(=O)NS(=O)(=O)c4ccc(NCC5CCOCC5)c([N+](=O)[O-])c4)c(Oc4cnc5[nH]ccc5c4)c3)CC2)=C(c2ccc(Cl)cc2)C1 + CC(C)NCC(C(=O)N1CCN(c2ncnc3c2C(C)CC3O)CC1)c1ccc(Cl)cc1"
  measurementUnits: "%"
  readoutValue: 53.5
- compound: "Cn1nccc1Nc1nccc(-c2ccn(C(CO)c3ccc(Cl)c(F)c3)c(=O)c2)n1 (stereo not given) + CCN1CCN(Cc2ccc(Nc3ncc(F)c(-c4cc(F)c5nc(C)n(C(C)C)c5c4)n3)nc2)CC1"
  measurementUnits: "%"
  readoutValue: 210
- compound: "CC1(C)CCC(CN2CCN(c3ccc(C(=O)NS(=O)(=O)c4ccc(NCC5CCOCC5)c([N+](=O)[O-])c4)c(Oc4cnc5[nH]ccc5c4)c3)CC2)=C(c2ccc(Cl)cc2)C1 + CCN1CCN(Cc2ccc(Nc3ncc(F)c(-c4cc(F)c5nc(C)n(C(C)C)c5c4)n3)nc2)CC1"
  measurementUnits: "%"
  readoutValue: 92.3
- compound: "Cn1ncc(Cl)c1-c1cc(C(=O)NC(CN)Cc2cccc(F)c2)sc1Cl (stereo not given) + CC(C)NCC(C(=O)N1CCN(c2ncnc3c2C(C)CC3O)CC1)c1ccc(Cl)cc1"
  measurementUnits: "%"
  readoutValue: 37.3
- compound: "COc1c(OCCCN2CCOCC2)ccc2c3n(c(=NC(=O)c4cnc(N)nc4)nc12)CCN3 + CC(C)NCC(C(=O)N1CCN(c2ncnc3c2C(C)CC3O)CC1)c1ccc(Cl)cc1"
  measurementUnits: "%"
  readoutValue: 9.83

Values were extracted from PubChem BioAssay AID2060333.
